B1: TPR t1 (parent)
chain: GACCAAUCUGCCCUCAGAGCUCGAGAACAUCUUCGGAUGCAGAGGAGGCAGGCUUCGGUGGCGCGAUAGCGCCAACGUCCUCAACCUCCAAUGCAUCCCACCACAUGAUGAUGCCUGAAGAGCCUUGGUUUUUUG

# Variants of: B1
# Assay: polymerase ribozyme fitness, log enrichment relative to wild type (log ratio); higher = more active; in vitro selection for triplet polymerase activity
Classification field: YES = polymerase ribozyme fitness (log ratio) at or over -4; NO = polymerase ribozyme fitness (log ratio) under -4.

Is polymerase ribozyme fitness (log ratio) for G45A C56G U87G C114G at or above -4?
NO

Could you please find out whether U87G C124A has polymerase ribozyme fitness (log ratio) that meets -4 or exceeds it?
YES

Tell me whether polymerase ribozyme fitness (log ratio) is at least -4 here: A16U G69U C98U A121C U130A
YES

Reported polymerase ribozyme fitness (log ratio) reaches at least -4 for G42C G61A C82U U116A ?
NO

Quick check: does C8A G63C U78C U81A C101A U109G have polymerase ribozyme fitness (log ratio) greater than or equal to -4?
NO

Is polymerase ribozyme fitness (log ratio) for C4U C53U U125A at or above -4?
YES

// inclusive: polymerase ribozyme fitness (log ratio) at least -4? input: A41U C70U A84U U116C C124U U130A
NO

Could you tell me if the measured polymerase ribozyme fitness (log ratio) of G58C G77A C97U reaches -4 or more?
YES

Given the entry C12A A26G G57A U78A C124G , answer whether its polymerase ribozyme fitness (log ratio) meets or surpasses -4.
YES

Threshold query (polymerase ribozyme fitness (log ratio) >= -4) on G60C A83C C115U
YES

Please tell me: is the variant G36A A37G C72U G122A at or over -4 in terms of polymerase ribozyme fitness (log ratio)?
YES
